Experiment: Solubility of taxol with soluble anionic-β-cyclodextrin polymer CDPSI (Example 4)
Type: physicochemical
Conditions: 5% cdpsi solution; CDPSI 5%
REPORTED ENDPOINT: solubility (µg/mL)
Give your result in µg/mL as a bare value.

## Task GET /values?readout=solubility&item= CC(=O)O[C@H]1C(=O)[C@@]2(C)[C@H]([C@H](OC(=O)c3ccccc3)[C@]3(O)C[C@H](OC(=O)[C@H](O)[C@@H](NC(=O)c4ccccc4)c4ccccc4)C(C)=C1C3(C)C)[C@]1(OC(C)=O)CO[C@@H]1C[C@@H]2O (relative stereo)
## Result 3.5

###

Assay: physchem
Conditions: 40% rameb in buffered saline, pH 7.6
REPORTED ENDPOINT: solubility thermodynamic at 12 h (µg/mL)
Give your result in µg/mL as a bare value.

## Task GET /values?readout=solubility thermodynamic at 12 h&item= CC(=O)O[C@H]1C(=O)[C@@]2(C)[C@H]([C@H](OC(=O)c3ccccc3)[C@]3(O)C[C@H](OC(=O)[C@H](O)[C@@H](NC(=O)c4ccccc4)c4ccccc4)C(C)=C1C3(C)C)[C@]1(OC(C)=O)CO[C@@H]1C[C@@H]2O (relative stereo)
## Result 860

###

Assay: physchem
Settings: 10% aqueous succinyl-methyl-β-cyclodextrin
REPORTED ENDPOINT: solubility thermodynamic at 12 h
Give the number first and the unit second.

## Task GET /values?readout=solubility thermodynamic at 12 h&item= CC(=O)O[C@H]1C(=O)[C@@]2(C)[C@H]([C@H](OC(=O)c3ccccc3)[C@]3(O)C[C@H](OC(=O)[C@H](O)[C@@H](NC(=O)c4ccccc4)c4ccccc4)C(C)=C1C3(C)C)[C@]1(OC(C)=O)CO[C@@H]1C[C@@H]2O (relative stereo)
## Result 244 µg/mL

###

Assay: Solubilizing of taxol with HPBCD (Example 5)
Type: physicochemical
Conditions: 10% hpbcd solution; HPBCD 10%
REPORTED ENDPOINT: solubility

## Task GET /values?readout=solubility&item= CC(=O)O[C@H]1C(=O)[C@@]2(C)[C@H]([C@H](OC(=O)c3ccccc3)[C@]3(O)C[C@H](OC(=O)[C@H](O)[C@@H](NC(=O)c4ccccc4)c4ccccc4)C(C)=C1C3(C)C)[C@]1(OC(C)=O)CO[C@@H]1C[C@@H]2O (relative stereo) [taxol]
## Result 34.9 µg/mL

###

Assay: Solubility of taxol with soluble anionic-β-cyclodextrin polymer CDPSI (Example 4)
Type: physicochemical
Conditions: 0% cdpsi; CDPSI 0%
REPORTED ENDPOINT: solubility (µg/mL)
Give your result in µg/mL as a bare value.

## Task GET /values?readout=solubility&item= CC(=O)O[C@H]1C(=O)[C@@]2(C)[C@H]([C@H](OC(=O)c3ccccc3)[C@]3(O)C[C@H](OC(=O)[C@H](O)[C@@H](NC(=O)c4ccccc4)c4ccccc4)C(C)=C1C3(C)C)[C@]1(OC(C)=O)CO[C@@H]1C[C@@H]2O (relative stereo) [taxol]
## Result 0.6

###

Test: Solubility of taxol with soluble anionic-β-cyclodextrin polymer CDPSI (Example 4)
Format: physicochemical
Conditions: 40% cdpsi solution; CDPSI 40%
REPORTED ENDPOINT: solubility (µg/mL)
Give your result in µg/mL as a bare value.

## Task GET /values?readout=solubility&item= CC(=O)O[C@H]1C(=O)[C@@]2(C)[C@H]([C@H](OC(=O)c3ccccc3)[C@]3(O)C[C@H](OC(=O)[C@H](O)[C@@H](NC(=O)c4ccccc4)c4ccccc4)C(C)=C1C3(C)C)[C@]1(OC(C)=O)CO[C@@H]1C[C@@H]2O (relative stereo)
## Result 56.8
